- assay.info: NCI Yeast Anticancer Drug Screen. Data for the mec2-1 strain (AID 157)
- setup.conditions: S. cerevisiae mec2-1 strain, at 50.0 µM (retest, dose inferred, filed as 5.0), stronger effect = higher value
Compounds without any hit were thinned out: in the full panel of roughly 79,000, 15% have a hit.
I would appreciate it if you labelled entries t when growth inhibition is 30% or higher, otherwise f.

[
  {
    "compound": "O=C(/C(=C\\c1ccc(Cl)c(Cl)c1)c1ccccc1)c1ccc(O)cc1",
    "class": "t"
  },
  {
    "compound": "O=C(/C=C/c1ccccn1)c1ccccc1",
    "class": "f"
  },
  {
    "compound": "CCOC(=O)Nc1c(C)cc(C)c(Br)c1C",
    "class": "f"
  },
  {
    "compound": "Oc1c(Cl)c(Cl)c(Cl)c2ccccc12",
    "class": "t"
  },
  {
    "compound": "ClCCCN(CCCCl)c1ccc(C=Nc2cccc(Cl)c2)cc1",
    "class": "f"
  },
  {
    "compound": "CCCCCCCCCCCC(=O)CN1CCOCC1",
    "class": "t"
  },
  {
    "compound": "O=C1C=CC(=O)c2c1ccc1c3ccccc3n(Cc3ccccc3)c21",
    "class": "t"
  },
  {
    "compound": "O=C(OC(=Nc1ccccc1)N(c1ccccc1)c1ccccc1)c1ccccc1",
    "class": "f"
  },
  {
    "compound": "O=S(c1cc(Cl)cc(Cl)c1O)c1cc(Cl)cc(Cl)c1O",
    "class": "t"
  },
  {
    "compound": "CN(C)CCC(=O)c1cccc([N+](=O)[O-])c1",
    "class": "t"
  },
  {
    "compound": "OCC1OC(n2cnc3c(=S)nc[nH]c32)C(O)C1O (configuration not stated)",
    "class": "f"
  },
  {
    "compound": "OC1CN(Cc2ccccc2)C[C@@H]1O (some centres not stated)",
    "class": "t"
  }
]

====

- assay.info: NCI Yeast Anticancer Drug Screen. Data for the rad50 strain (AID 155);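 further: 0% = growth of vehicle-only cultures of the same strain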
- setup.conditions: S. cerevisiae rad50 strain growth inhibition; at 5.0 µM (retest, dose inferred, filed as 0.5); stronger effect = higher value
This is part of a sample that, as a whole, favours compounds with a hit. Of some 79,000 tested, about 15% had one in any assay.
metric: growth inhibition (%)

[
  {
    "compound": "CCN(CC)Cc1cc2c(cc1O)CC[C@@H]1[C@@H]2CC[C@]2(C)C(=O)CC[C@@H]12",
    "observed": 39
  },
  {
    "compound": "CC(CCc1nc2ccccc2s1)(c1ccc(O)cc1)c1ccc(O)cc1",
    "observed": 27
  },
  {
    "compound": "O=C(Nc1ccc(Cl)cc1)c1ccccc1O",
    "observed": 2
  },
  {
    "compound": "Clc1nc(Cl)c(Cl)c(Cl)n1",
    "observed": 29
  },
  {
    "compound": "CC12CCCCC1C/C(=N/NC(N)=O)CC2 (stereo not drawn)",
    "observed": -135
  },
  {
    "compound": "COc1cccc2c1C(=O)c1c(O)c3c(c(O)c1C2=O)C[C@@](O)(C(C)=O)C[C@@H]3OC1CC(N(C)C)C(O)C(C)O1 (stereo partly drawn)",
    "observed": 98
  },
  {
    "compound": "Nc1ncnc(N)c1N=O",
    "observed": -19
  },
  {
    "compound": "Nc1ccc2c3c(cccc13)C(=O)N(CCCBr)C2=O",
    "observed": 9
  },
  {
    "compound": "CCCCCCCCCCNC1CC(OC2CC(O)(C(O)CO)Cc3c(O)c4c(c(O)c32)C(=O)c2c(OC)cccc2C4=O)OC(C)C1O (stereo not drawn)",
    "observed": 96
  },
  {
    "compound": "CC1(C)N(OC2CCCCO2)C(c2ccccc2)C(c2ccccc2)=[N+]1[O-] (stereo not drawn)",
    "observed": 18
  },
  {
    "compound": "CCn1c(-c2c(Cl)cc(O)cc2Cl)cc2c(Cl)cc(O)cc21",
    "observed": 64
  },
  {
    "compound": "O=C(N/C=C/C=C/Sc1ccccc1)OCc1ccccc1",
    "observed": 6
  },
  {
    "compound": "NNc1ccc2ccccc2c1",
    "observed": 28
  },
  {
    "compound": "O=C(CNCc1ccccc1)Oc1c(Cl)c(Cl)c(Cl)c(Cl)c1Cl",
    "observed": 3
  },
  {
    "compound": "Nc1ncnc2c1ncn2C1SC(CO)C(O)C1O (stereo not drawn)",
    "observed": 0
  },
  {
    "compound": "O=c1cc[nH]c2ccccc12",
    "observed": 34
  },
  {
    "compound": "CCO/C(=C\\C=O)C1CCC2C3CC=C4CC(OC(C)=O)CCC4(C)C3CCC12C (stereo not drawn)",
    "observed": 7
  },
  {
    "compound": "CC(C)c1ccc(C=Nc2ccc(SSc3ccc(N=Cc4ccc(C(C)C)cc4)cc3)cc2)cc1",
    "observed": 44
  },
  {
    "compound": "O=C(/C=C/c1ccc(Cl)cc1)NC1C=Nc2ccc([N+](=O)[O-])cc2NC1=O (stereo not drawn)",
    "observed": 32
  },
  {
    "compound": "Cc1nc2c(ccc3[nH]c4ccccc4c32)s1",
    "observed": 7
  },
  {
    "compound": "COC(=O)[C@]1(C)CCC[C@]2(C)c3cc(C(C)=O)c(C(C)C)cc3CC[C@@H]12",
    "observed": -1
  },
  {
    "compound": "Nc1nc(N)c2c(Cl)c(CNc3ccc(Cl)c(Cl)c3)ccc2n1",
    "observed": 82
  },
  {
    "compound": "CC(=O)OC1CCC2(C)C(CCC3C4CCC(OC(C)=O)C4(C)CCC32)O1 (stereo not drawn)",
    "observed": -3
  }
]

====

- assay.info: NCI Yeast Anticancer Drug Screen. Data for the rad50 strain (AID 155);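 further: 0% = growth of vehicle-only cultures of the same strain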
- setup.conditions: S. cerevisiae rad50 strain growth inhibition; at 50.0 µM; stronger effect = higher value
About 79,000 compounds went through this panel and 15% of them were active in at least one assay; those are over-represented in the sample as a whole.
I would appreciate it if you labelled entries fulfilled when growth inhibition is 90% or higher, otherwise not fulfilled.

[
  {
    "compound": "CC1=NC(=Cc2ccc([N+](=O)[O-])cc2)C(=O)N1n1c(-c2ccccc2)nc2ccccc2c1=O",
    "class": "not fulfilled"
  },
  {
    "compound": "CC(C)OC(=S)SSC(=S)OC(C)C",
    "class": "fulfilled"
  },
  {
    "compound": "Nc1nnc(/C=C/c2ccccc2)o1",
    "class": "not fulfilled"
  },
  {
    "compound": "Nc1ccc2c(ccc3ccc4ccccc4c32)c1",
    "class": "fulfilled"
  },
  {
    "compound": "CC(=O)OC(c1ccccc1)c1ccc(Cl)cc1 (centres undefined)",
    "class": "not fulfilled"
  },
  {
    "compound": "CCN(CC)CCNc1nc(NCCN(CC)CC)c2nc(-c3ccccc3)c(-c3ccccc3)nc2n1",
    "class": "fulfilled"
  },
  {
    "compound": "O=C1CSC(=S)N1c1ccc(F)c(F)c1",
    "class": "fulfilled"
  },
  {
    "compound": "c1ccc(Cc2cc3ccccc3c3ccccc23)cc1",
    "class": "not fulfilled"
  },
  {
    "compound": "COc1cc2c(c(OC)c1OC)-c1ccc(SC)c(=O)cc1C(NC(=O)c1ccccc1)CC2 (centres undefined)",
    "class": "not fulfilled"
  },
  {
    "compound": "OCc1ccccc1C(c1ccccc1)c1ccccc1",
    "class": "not fulfilled"
  },
  {
    "compound": "CC(CCc1nc2ccccc2s1)(c1ccc(O)cc1)c1ccc(O)cc1",
    "class": "fulfilled"
  },
  {
    "compound": "CCCCCCCCCCCCN1C(=O)[N+](C)(C)N=C1[O-]",
    "class": "fulfilled"
  },
  {
    "compound": "Nc1ncnc2c(C3OC(CO)C(O)C3O)scc12 (centres undefined)",
    "class": "not fulfilled"
  },
  {
    "compound": "COC(=O)C(CC(C)=O)CS(=O)(=O)CC(=O)C(=O)Nc1cccc([N+](=O)[O-])c1 (centres undefined)",
    "class": "fulfilled"
  },
  {
    "compound": "c1ccc(-c2conc2-c2ccccc2)cc1",
    "class": "not fulfilled"
  },
  {
    "compound": "COc1ccc(-c2c(C#N)c(-c3ccc(C)cc3)n(NS(=O)(=O)c3ccccc3)c(=O)c2C#N)cc1",
    "class": "not fulfilled"
  },
  {
    "compound": "CCOC(=O)C(CN)(c1ccccc1)c1ccccc1",
    "class": "not fulfilled"
  }
]
